# chromatographic logP per entry
measurement_description: logP by HPLC, reversed-phase column (C 18), EEC Directive 79/831 Annex V.A8
Type: physicochemical
experimental_conditions: reversed-phase HPLC column (C 18), acidic range pH 2.3, 0.1% aqueous phosphoric acid/acetonitrile gradient, 43° C.

Some compounds with recorded chromatographic logP:
Request: Report chromatographic logP for CCCC(CC)c1ccccc1NC(=O)c1c(C)nn(C)c1F (centres unmarked) please.
Response: 3.42

Request: Report chromatographic logP for CCC(C)C(C)(F)c1ccccc1NC(=O)c1c(C)nn(C)c1F (centres unmarked) please.
Response: 3.44

Request: Report chromatographic logP for CCCCCC(C)(O)c1ccccc1NC(=O)c1c(C)nn(C)c1F (centres unmarked) please.
Response: 3.13

Request: Report chromatographic logP for CCCC(C)c1cccc(F)c1NC(=O)c1c(C)nn(C)c1F (centres unmarked) please.
Response: 2.86

***
Request: Report chromatographic logP for CCC(O)(CC)c1ccccc1NC(=O)c1c(C)nn(C)c1F please.
Response: 2.47

Request: Report chromatographic logP for C=C(C)c1ccccc1NC(=O)c1c(C)nn(C)c1F please.
Response: 2.57

Request: Report chromatographic logP for Cc1nn(C)c(F)c1C(=O)Nc1ccccc1C(C)(O)C(C)C (centres unmarked) please.
Response: 2.41

Request: Report chromatographic logP for Cc1nn(C)c(F)c1C(=O)Nc1ccccc1C(C)C1CCCCC1 (centres unmarked) please.
Response: 3.82

Request: Report chromatographic logP for Cc1nn(C)c(F)c1C(=O)Nc1ccc(Cl)cc1C(C)CC(C)C (centres unmarked) please.
Response: 3.82

Request: Report chromatographic logP for CCCC/C=C(\C)c1ccccc1NC(=O)c1c(C)nn(C)c1F please.
Response: 4.36

Request: Report chromatographic logP for C=C(c1ccccc1NC(=O)c1c(C)nn(C)c1F)C(C)C please.
Response: 3.37

Request: Report chromatographic logP for Cc1nn(C)c(F)c1C(=O)Nc1ccccc1I please.
Response: 2.44

---

measurement_description: logP by HPLC, reversed-phase column (C 18), EEC Directive 79/831 Annex V.A8
Format: physicochemical
experimental_conditions: reversed-phase HPLC column (C 18), acidic range pH 2.3, 0.1% aqueous phosphoric acid/acetonitrile gradient, 43° C.
outcome_measure: chromatographic logP
// return a plain number; no unit text

Request: Report chromatographic logP for Cc1nn(C)c(F)c1C(=O)Nc1ccccc1C(C)(F)CCCCCl (centres unmarked) [Example I-47] please.
Response: 4.01

***
Request: Report chromatographic logP for Cc1nn(C)c(F)c1C(=O)Nc1ccccc1C(C)(O)CC(C)C (centres unmarked) [IV-6] please.
Response: 2.68

---

measurement_description: logP by HPLC, reversed-phase column (C 18), EEC Directive 79/831 Annex V.A8
Type: physicochemical
experimental_conditions: reversed-phase HPLC column (C 18), acidic range pH 2.3, 0.1% aqueous phosphoric acid/acetonitrile gradient, 43° C.
outcome_measure: chromatographic logP
// return a plain number; no unit text

Some molecules with recorded chromatographic logP:
Request: Report chromatographic logP for CCCC(C)(O)c1ccccc1NC(=O)c1c(C)nn(C)c1F (stereo not drawn) please.
Response: 2.4

Request: Report chromatographic logP for Cc1nn(C)c(F)c1C(=O)Nc1ccccc1C(C)(F)C(C)C (stereo not drawn) please.
Response: 3.09

Request: Report chromatographic logP for CCC(O)(CC(C)C)c1ccccc1NC(=O)c1c(C)nn(C)c1F (stereo not drawn) please.
Response: 3.11

Request: Report chromatographic logP for CCC(c1ccccc1NC(=O)c1c(C)nn(C)c1F)C1CCCCC1 (stereo not drawn) please.
Response: 4.34

Request: Report chromatographic logP for CCC(C)C(CC)c1ccccc1NC(=O)c1c(C)nn(C)c1F (stereo not drawn) please.
Response: 3.74

***
Request: Report chromatographic logP for CCC(CC(C)C)c1ccccc1NC(=O)c1c(C)nn(C)c1F (stereo not drawn) please.
Response: 3.73

Values compiled from patent US7538073B2.
